# Experimental Target: trypsin
# Assay Info: TRF ELISA, Fab on biotinylated trypsin
What TRF signal for 0.6 ug/mL Fab was measured for each of the following?

Binder | Value Observed
KB_C09 Fab (Fab, V domains shown) VH: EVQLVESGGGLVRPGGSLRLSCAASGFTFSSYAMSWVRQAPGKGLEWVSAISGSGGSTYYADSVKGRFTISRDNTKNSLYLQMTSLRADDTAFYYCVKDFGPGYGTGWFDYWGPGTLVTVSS VL: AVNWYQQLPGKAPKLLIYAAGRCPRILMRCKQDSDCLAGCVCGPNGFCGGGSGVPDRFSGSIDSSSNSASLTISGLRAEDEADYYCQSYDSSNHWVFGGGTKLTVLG | 46800

Provide each entry's TRF signal for 0.6 ug/mL Fab from the list below.
1. KB_C10 Fab (Fab, V domains shown) VH: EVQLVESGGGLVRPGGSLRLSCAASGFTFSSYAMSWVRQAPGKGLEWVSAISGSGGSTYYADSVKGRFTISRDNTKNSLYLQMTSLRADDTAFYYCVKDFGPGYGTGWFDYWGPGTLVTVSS VL: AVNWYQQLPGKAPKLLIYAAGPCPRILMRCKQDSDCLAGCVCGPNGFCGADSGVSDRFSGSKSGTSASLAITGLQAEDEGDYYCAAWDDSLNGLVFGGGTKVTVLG
2. KB_A06 Fab (Fab, V domains shown) VH: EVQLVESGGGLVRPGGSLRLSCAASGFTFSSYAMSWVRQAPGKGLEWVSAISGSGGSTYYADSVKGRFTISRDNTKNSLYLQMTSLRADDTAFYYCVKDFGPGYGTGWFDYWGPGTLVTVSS VL: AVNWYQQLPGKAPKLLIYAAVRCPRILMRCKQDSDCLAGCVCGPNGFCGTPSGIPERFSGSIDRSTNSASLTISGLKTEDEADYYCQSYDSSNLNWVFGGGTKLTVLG

1. 41700
2. 108000
